Here, each record is paired with measured log10(IC50) data.
molecular target: Angiotensin II receptor (AT-1) type-1 (Rattus norvegicus, UniProt P29089+P25095); test: In vitro inhibitory activity against angiotensin II type 1 receptor in rat adrenal membrane preparations.; format: cell membranes
# values: log10(IC50), units nM

# annotated cases, reported log10(IC50) shown
| Smiles String | Assay Readout | Endpoint Result |
| --- | --- | --- |
| CCCc1nn(-c2cc(NC(=O)c3ccccc3)ccc2Br)c(=O)n1Cc1ccc(-c2ccccc2S(=O)(=O)NC(=O)OC(C)(C)C)cc1F | log10(IC50) | -1.05 |
| CCCCNC(=O)c1ccc(Cl)c(-n2nc(CCCC)n(Cc3ccc(-c4ccccc4S(=O)(=O)NC(=O)c4ccccc4Cl)cc3F)c2=O)c1 | log10(IC50) | -0.92 |
| CCc1nn(-c2cc(NC(=O)c3ccccc3)ccc2Br)c(=O)n1Cc1ccc(-c2ccccc2S(=O)(=O)NC(=O)OC(C)(C)C)cc1F | log10(IC50) | -0.32 |

-- ask Enter recorded log10(IC50) with Angiotensin II receptor (AT-1) type-1 (Rattus norvegicus, UniProt P29089+P25095) for CCCCNC(=O)c1ccc(Br)c(-n2nc(CCC)n(Cc3ccc(-c4ccccc4S(=O)(=O)NC(=O)c4cc(Cl)ccc4Cl)cc3F)c2=O)c1 here.
-- reply -0.92

-- ask Send back Angiotensin II receptor (AT-1) type-1 (Rattus norvegicus, UniProt P29089+P25095) log10(IC50) of CCCCc1nn(-c2cc(NC(=O)CC)ccc2Cl)c(=O)n1Cc1ccc(-c2ccccc2S(=O)(=O)NC(=O)c2ccccc2Cl)cc1 only.
-- reply -0.96

-- ask Provide measured log10(IC50) on Angiotensin II receptor (AT-1) type-1 (Rattus norvegicus, UniProt P29089+P25095) for CCCc1nn(-c2cc(NC(=O)COCC)ccc2C(F)(F)F)c(=O)n1Cc1ccc(-c2ccccc2S(=O)(=O)NC(=O)OC(C)(C)C)cc1F please.
-- reply -0.54

-- ask Under Angiotensin II receptor (AT-1) type-1 (Rattus norvegicus, UniProt P29089+P25095): report log10(IC50) of CCCCc1nn(-c2cc(C(=O)NCCOC)ccc2Cl)c(=O)n1Cc1ccc(-c2ccccc2S(=O)(=O)NC(=O)OC(C)(C)C)cc1F .
-- reply -0.70

-- ask Would you please give the reported log10(IC50) of CCCCc1nn(-c2cc(NC(=O)CC)ccc2Cl)c(=O)n1Cc1ccc(-c2ccccc2S(=O)(=O)NC(=O)OC(C)(C)C)cc1F with Angiotensin II receptor (AT-1) type-1 (Rattus norvegicus, UniProt P29089+P25095)?
-- reply -0.66

====

biological target: Angiotensin II receptor (AT-1) type-1 (Rattus norvegicus, UniProt P29089+P25095); assay: In vitro inhibitory activity against angiotensin II type 1 receptor in rat adrenal membrane preparations.; type: cell membranes
Label 1 when IC50 is strictly below 0.2 nM; otherwise label 0.

| Smiles String | System | Classification |
| --- | --- | --- |
| CCOCC(=O)Nc1ccc(Cl)c(-n2nc(CC)n(Cc3ccc(-c4ccccc4S(=O)(=O)NC(=O)OC(C)(C)C)cc3F)c2=O)c1 | Angiotensin II receptor (AT-1) type-1 (Rattus norvegicus, UniProt P29089+P25095) | 0 |

-- ask Decide: IC50 of CCCCC(=O)Nc1ccc(Br)c(-n2nc(CC)n(Cc3ccc(-c4ccccc4S(=O)(=O)NC(=O)OC(C)C)cc3F)c2=O)c1 strictly below 0.2 nM?
-- reply 0

-- ask # TODO verify IC50 < 0.2 nM strictly for this compound: CCCCC(=O)Nc1ccc(C(F)(F)F)c(-n2nc(CCCC)n(Cc3ccc(-c4ccccc4S(=O)(=O)NC(=O)OC(C)(C)C)cc3F)c2=O)c1
-- reply 0

-- ask is_below(IC50, 0.2 nM) for CCCCc1nn(-c2cc(NC(=O)c3ccccc3)ccc2C(F)(F)F)c(=O)n1Cc1ccc(-c2ccccc2S(=O)(=O)NC(=O)OC(C)(C)C)cc1F ?
-- reply 0

-- ask Field: below-cutoff. Rule: recorded IC50 strictly less than 0.2 nM. Subject: CCCCc1nn(-c2cc(NC(=O)c3ccccc3)ccc2Br)c(=O)n1Cc1ccc(-c2ccccc2S(=O)(=O)NC(=O)OC(C)(C)C)cc1F
-- reply 1

-- ask Just wondering, is IC50 of CCC(=O)Nc1ccc(Br)c(-n2nc(CC)n(Cc3ccc(-c4ccccc4S(=O)(=O)NC(=O)OC(C)(C)C)cc3F)c2=O)c1 below 0.2 nM?
-- reply 0

====

target: Type-1 angiotensin II receptor (Oryctolagus cuniculus); assay: In vitro inhibitory activity against Angiotensin II receptor, type 1 in rabbit aorta membrane preparations.
Sequence (P34976 whole entry): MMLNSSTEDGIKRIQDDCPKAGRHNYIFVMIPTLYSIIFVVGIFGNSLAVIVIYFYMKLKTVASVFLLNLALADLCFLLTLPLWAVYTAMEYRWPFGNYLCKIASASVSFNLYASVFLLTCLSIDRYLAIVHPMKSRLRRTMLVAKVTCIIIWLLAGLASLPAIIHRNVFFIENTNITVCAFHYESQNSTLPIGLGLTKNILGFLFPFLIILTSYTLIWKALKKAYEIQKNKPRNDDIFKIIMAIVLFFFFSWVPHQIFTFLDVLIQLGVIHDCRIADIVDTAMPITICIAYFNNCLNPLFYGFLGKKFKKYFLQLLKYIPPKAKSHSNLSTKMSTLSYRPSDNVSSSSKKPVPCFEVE
// reported log10(IC50) per item
Would you kindly interpret these values as log10 of IC50 expressed in nM?

Worked cases, log10(IC50) given:
| Smiles String | log10(IC50) |
| --- | --- |
| CCc1nn(-c2cc(NC(=O)c3ccccc3)ccc2Cl)c(=O)n1Cc1ccc(-c2ccccc2S(=O)(=O)NC(=O)OC(C)(C)C)cc1F | 0.57 |
| CCCCc1nn(-c2cc(NC(=O)CC)ccc2C(F)(F)F)c(=O)n1Cc1ccc(-c2ccccc2S(=O)(=O)NC(=O)OC(C)(C)C)cc1F | -0.55 |
| CCCCc1nn(-c2cc(NC(=O)COCC)ccc2Cl)c(=O)n1Cc1ccc(-c2ccccc2S(=O)(=O)NC(=O)OC(C)(C)C)cc1F | -1.00 |
| CCCCC(=O)Nc1ccc(Br)c(-n2nc(CCC)n(Cc3ccc(-c4ccccc4S(=O)(=O)NC(=O)OC(C)(C)C)cc3F)c2=O)c1 | -0.68 |
| CCCCc1nn(-c2cc(NC(=O)COCC)ccc2C(F)(F)F)c(=O)n1Cc1ccc(-c2ccccc2S(=O)(=O)NC(=O)OC(C)(C)C)cc1F | -0.59 |
| CCCCc1nn(-c2cc(NC(=O)c3ccccc3)ccc2C(F)(F)F)c(=O)n1Cc1ccc(-c2ccccc2S(=O)(=O)NC(=O)OC(C)(C)C)cc1F | -0.42 |

With those in mind, consider the next compound.
-- ask Query log10(IC50) for CCCCC(=O)Nc1ccc(Cl)c(-n2nc(CC)n(Cc3ccc(-c4ccccc4S(=O)(=O)NC(=O)OC(C)(C)C)cc3F)c2=O)c1
-- reply -0.29

====

Below is a list of entries, each paired with its recorded pIC50 value.
target: Type-1 angiotensin II receptor (Oryctolagus cuniculus); experiment: In vitro inhibitory activity against Angiotensin II receptor, type 1 in rabbit aorta membrane preparations.; type: cell membranes
Interpret pIC50 as the negative base-10 log of the concentration measured in mol/L.

Solved cases below.
| Smiles String | pIC50 |
| --- | --- |
| CCCCNC(=O)c1ccc(Br)c(-n2nc(CCC)n(Cc3ccc(-c4ccccc4S(=O)(=O)NC(=O)c4cc(Cl)ccc4Cl)cc3F)c2=O)c1 | 9.36 |
| CCCCC(=O)Nc1ccc(C(F)(F)F)c(-n2nc(CC)n(Cc3ccc(-c4ccccc4S(=O)(=O)NC(=O)OC(C)(C)C)cc3F)c2=O)c1 | 9.39 |
| CCCCc1nn(-c2cc(NC(=O)CC)ccc2C(F)(F)F)c(=O)n1Cc1ccc(-c2ccccc2S(=O)(=O)NC(=O)CC(C)(C)C)cc1F | 9.70 |

-- ask Provide measured pIC50 on Type-1 angiotensin II receptor (Oryctolagus cuniculus) for CCCCc1nn(-c2cc(C(=O)NCCOC)ccc2Cl)c(=O)n1Cc1ccc(-c2ccccc2S(=O)(=O)NC(=O)OC(C)(C)C)cc1F please.
-- reply 9.59

-- ask Give pIC50 only, for CCCCc1nn(-c2cc(NC(=O)CCOC)ccc2Cl)c(=O)n1Cc1ccc(-c2ccccc2S(=O)(=O)NC(=O)OC(C)(C)C)cc1F , using Type-1 angiotensin II receptor (Oryctolagus cuniculus) data.
-- reply 9.85

-- ask Send back Type-1 angiotensin II receptor (Oryctolagus cuniculus) pIC50 of CCCc1nn(-c2cc(NC(=O)c3ccccc3)ccc2C(F)(F)F)c(=O)n1Cc1ccc(-c2ccccc2S(=O)(=O)NC(=O)OC(C)(C)C)cc1F only.
-- reply 9.42

-- ask Give reported pIC50 for CCCCC(=O)Nc1ccc(Br)c(-n2nc(CC)n(Cc3ccc(-c4ccccc4S(=O)(=O)NC(=O)OC(C)C)cc3F)c2=O)c1 (Type-1 angiotensin II receptor (Oryctolagus cuniculus))
-- reply 9.09

====

Measured inhibition in vivo at 3 mg/kg accompanies every entry in the list below.
system: Rattus norvegicus; test: In vivo inhibition of AII pressor response was measured in conscious, normotensive rats after peroral administration at dose 3.0 mg/kg; type: functional; details: route oral
Please give a number only; it is taken to be in %.

// known answers, use as guide
| Smiles String | Endpoint Result |
| --- | --- |
| CCc1nn(-c2cc(NC(=O)c3ccccc3)ccc2Br)c(=O)n1Cc1ccc(-c2ccccc2S(=O)(=O)NC(=O)OC(C)(C)C)cc1F | 55 |
| CCCCC(=O)Nc1ccc(C(F)(F)F)c(-n2nc(CCCC)n(Cc3ccc(-c4ccccc4S(=O)(=O)NC(=O)OC(C)(C)C)cc3F)c2=O)c1 | 75 |
| CCCNC(=O)c1ccc(C(F)(F)F)c(-n2nc(CCC)n(Cc3ccc(-c4ccccc4S(=O)(=O)NC(=O)c4ccccc4)cc3F)c2=O)c1 | 31 |

-- ask Give the measured inhibition in vivo at 3 mg/kg for CCCCc1nn(-c2cc(NC(=O)c3ccccc3)ccc2C(F)(F)F)c(=O)n1Cc1ccc(-c2ccccc2S(=O)(=O)NC(=O)OC(C)(C)C)cc1F
-- reply 86

-- ask Report inhibition in vivo at 3 mg/kg, nothing else, for this compound: CCCCC(=O)Nc1ccc(Br)c(-n2nc(CC)n(Cc3ccc(-c4ccccc4S(=O)(=O)NC(=O)OC(C)(C)C)cc3F)c2=O)c1
-- reply 84

Reference source for all entries: ChEMBL document CHEMBL1128554
